experiment_description: Antioxidant activity assessed as singlet oxygen scavenging activity by fluorescent rhodamine formation assay
Format: functional
Listed here: items and their measured pIC50.
Keep it numeric: pIC50 is minus log10 of the concentration in mol/L.

Exercise: Please give the documented pIC50 of "O=C(c1ccc(O)c(O)c1)c1c(-c2ccc(O)c(O)c2)oc2cc(O)cc(O)c2c1=O"
Key: 4.37

Exercise: Using the record for "CCCCc1c(-c2ccc(O)c(O)c2)oc2cc(O)cc(O)c2c1=O" , state its measured pIC50.
Key: 4.21

Exercise: State, in one line, measured pIC50 of "CCCCCCc1c(-c2ccc(O)c(O)c2)oc2cc(O)cc(O)c2c1=O"
Key: 4.23

Exercise: Indicate the recorded pIC50 value for this compound: "COc1ccc(/C=C/c2cc(=O)c3ccc(O)c(O)c3o2)cc1OC"
Key: 5.00

Exercise: Consider the compound "O=C1O[C@H]([C@@H](O)CO)C(O)=C1O" . State its measured pIC50.
Key: 4.99

Exercise: Report pIC50, nothing else, for this compound: "O=c1cc(/C=C/c2ccc(O)c(O)c2)oc2c(O)c(O)ccc12"
Key: 5.33

Exercise: Give pIC50 for the following compound: "CCCCCCCCCCc1c(-c2ccc(O)c(O)c2)oc2cc(O)cc(O)c2c1=O"
Key: 5.10

Exercise: # return recorded pIC50 for entry "COc1ccc2c(=O)cc(/C=C/c3ccc(O)c(O)c3)oc2c1OC"
Key: 5.10

----------
pIC50 for assorted compounds
experiment_description: Antioxidant activity assessed as nitric oxide scavenging activity by fluorescent triazofluorescein formation assay
Format: functional
On this scale, pIC50 is minus log10 of a concentration expressed in M (mol/L).

COc1ccc2c(=O)cc(/C=C/c3ccc(O)c(O)c3)oc2c1OC
6.43
C[C@@H]1O[C@@H](OC[C@H]2O[C@@H](Oc3c(-c4ccc(O)c(O)c4)oc4cc(O)cc(O)c4c3=O)[C@H](O)[C@@H](O)[C@@H]2O)[C@H](O)[C@H](O)[C@H]1O
5.93
CCCCCCc1c(-c2ccc(O)c(O)c2)oc2cc(O)cc(O)c2c1=O
5.48
O=c1cc(/C=C/c2ccc(O)c(O)c2)oc2c(O)c(O)ccc12
6.71
COc1ccc(/C=C/c2cc(=O)c3ccc(O)c(O)c3o2)cc1OC
6.60
O=C(c1ccc(O)c(O)c1)c1c(-c2ccc(O)c(O)c2)oc2cc(O)cc(O)c2c1=O
5.44
CCCCc1c(-c2ccc(O)c(O)c2)oc2cc(O)cc(O)c2c1=O
5.57

Exercise: For the compound "CCCCCCCCCCc1c(-c2ccc(O)c(O)c2)oc2cc(O)cc(O)c2c1=O" , report pIC50.
Key: 5.31

----------
experiment_description: Antioxidant activity assessed as peroxynitrite scavenging activity in absence of NaHCO3 by fluorescent rhodamine formation assay
Assay type: functional
Rule: IC50 below 1000 nM gives Satisfied, anything at or above gives Not satisfied.

CCCCc1c(-c2ccc(O)c(O)c2)oc2cc(O)cc(O)c2c1=O
Satisfied
O=C(c1ccc(O)c(O)c1)c1c(-c2ccc(O)c(O)c2)oc2cc(O)cc(O)c2c1=O
Satisfied
CCCCCCc1c(-c2ccc(O)c(O)c2)oc2cc(O)cc(O)c2c1=O
Not satisfied
CCCCCCCCCCc1c(-c2ccc(O)c(O)c2)oc2cc(O)cc(O)c2c1=O
Satisfied
O=c1cc(/C=C/c2ccc(O)c(O)c2)oc2c(O)c(O)ccc12
Satisfied
COc1ccc2c(=O)cc(/C=C/c3ccc(O)c(O)c3)oc2c1OC
Not satisfied

Attention now turns to another entry.
Exercise: Is 1000 nM strictly greater than the compound's reported IC50? compound: "COc1ccc(/C=C/c2cc(=O)c3ccc(O)c(O)c3o2)cc1OC"
Key: Satisfied
